For each entry below, report its viability, T/C value.
# System: 171881-019-R-J1-PDC tumor spheroid viability;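 also: spheroids exposed to compound for 7 days before viability read; 100% = DMSO vehicle-treated spheroids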
# experiment summary: Anticancer human tumor 171881-019-R-J1-PDC patient-derived invasive breast carcinoma cell line growth inhibition [PI3K]
# condition set: second compound 0.0316 µM; first compound 0.3 µM; active compounds read low; spheroids with HUVEC and MSC
Supply the numeric figure in %, leaving out any unit text.

### Prompt Look up and report measured viability, T/C for this entry: Cn1cnc2c(F)c(Nc3ccc(Br)cc3Cl)c(C(=O)NOCCO)cc21 + COc1c(OCCCN2CCOCC2)ccc2c3n(c(=NC(=O)c4cnc(N)nc4)nc12)CCN3
### Response 10.5

### Prompt Look up and report measured viability, T/C for this entry: Cn1cnc2c(F)c(Nc3ccc(Br)cc3Cl)c(C(=O)NOCCO)cc21 + Cc1nc(NC(=O)N2CCCC2C(N)=O)sc1-c1ccnc(C(C)(C)C(F)(F)F)c1
### Response 58.5

### Prompt Look up and report measured viability, T/C for this entry: Cn1cnc2c(F)c(Nc3ccc(Br)cc3Cl)c(C(=O)NOCCO)cc21 + CC(Nc1ncnc2nc[nH]c12)c1cc2cccc(Cl)c2c(=O)n1-c1ccccc1
### Response 63.5

### Prompt Look up and report measured viability, T/C for this entry: Cn1cnc2c(F)c(Nc3ccc(Br)cc3Cl)c(C(=O)NOCCO)cc21 + CC(Nc1ccc2c(c1)OCCn1cc(N3C(=O)OCC3C(F)F)nc1-2)C(N)=O
### Response 26.8
